A set of compounds tested on ROCK2 (Homo sapiens, UniProt O75116), with measured IC50:

Consider the reported IC50 for these compounds:
- compound: "O=C1N(c2ccc(-c3cn[nH]c3)cc2)CC(CO)C12Cc1ccccc1N2 (stereo not shown) [Example 52]"
  system-tested: "ROCK2 (Homo sapiens, UniProt O75116)"
  IC50: "< 3 nM"
- compound: "O=C1N(c2ccc(-c3cn[nH]c3)cc2)CCC12Cc1ccccc1C2 [Example 11]"
  system-tested: "ROCK2 (Homo sapiens, UniProt O75116)"
  IC50: "3 to 30 nM"
- compound: "NCC1CN(c2ccc(-c3cn[nH]c3)cc2)C(=O)C12Cc1ccccc1N2 (stereo not shown) [Example 53]"
  system-tested: "ROCK2 (Homo sapiens, UniProt O75116)"
  IC50: "< 3 nM"
- compound: "COc1ccc2c(c1)CC1(CCN(c3ccc(-c4cn[nH]c4)cc3)C1=O)O2 (stereo not shown) [Example 24]"
  system-tested: "ROCK2 (Homo sapiens, UniProt O75116)"
  IC50: "< 3 nM"
- compound: "O=C1N(c2ccc(-c3cn[nH]c3)cc2)CCC12Cc1ccc(F)cc1C2 (single isomer, unassigned) [Example 16]"
  system-tested: "ROCK2 (Homo sapiens, UniProt O75116)"
  IC50: "3 to 30 nM"
- compound: "O=C1N(c2ccc(-c3cn[nH]c3)cc2)CCC12Cc1ccc(OCC3CC3)cc1N2 (single isomer, unassigned) [Example 42]"
  system-tested: "ROCK2 (Homo sapiens, UniProt O75116)"
  IC50: "< 3 nM"

Give me IC50 for each of these compounds, listed below.
1. COc1nc(N2CCC3(Cc4ccccc4N3)C2=O)ccc1-c1cn[nH]c1 (stereo not shown) [Example 10]
2. COc1ccc2c(c1)NC1(CCN(c3ccc(-c4cn[nH]c4)cc3)C1=O)C2 (stereo not shown) [Example 4]
3. O=C1N(c2ccc(-c3cn[nH]c3)cc2)CCC12Cc1ccccc1O2 (single isomer, unassigned) [Example 30]
4. O=C1N(c2ccc(-c3cn[nH]c3)cc2)CCC12Cc1cc(F)ccc1N2 (single isomer, unassigned) [Example 8]
5. O=C1N(c2ccc(-c3ccc4[nH]ncc4c3)cc2)CCC12Cc1ccccc1N2 (stereo not shown) [Example 13]

Reply text:
1: < 3 nM; 2: < 3 nM; 3: 30 to 300 nM; 4: 3 to 30 nM; 5: 3 to 30 nM

Give me IC50 for each of these compounds, listed below.
1. O=C1N(c2ccc(-c3cn[nH]c3)cc2)CCC12Cc1ccccc1N2 (single isomer, unassigned) [Example 3]
2. COc1ccc2c(c1)NC1(CCN(c3ccc(-c4cn[nH]c4)cc3)C1=O)C2 (single isomer, unassigned) [Example 6]
3. O=C1N(c2ccc(-c3cn[nH]c3)cc2)CCC12Cc1ccccc1N2 (single isomer, unassigned) [Example 2]
4. O=C1N(c2ccc(-c3cn[nH]c3)cc2)CCC12CCc1ccccc1N2 (stereo not shown) [Example 47]

Reply text:
1. 30 to 300 nM
2. 3 to 30 nM
3. < 3 nM
4. < 3 nM

Give me IC50 for each of these compounds, listed below.
1. O=C1N(c2ccc(-c3cn[nH]c3)cc2)CC(CO)C12CCc1ccccc1N2 (stereo not shown) [Example 56]
2. O=C1N(c2ccc(-c3cn[nH]c3)cc2)CCC12Cc1ccc(O)cc1N2 (stereo not shown) [Example 37]
3. COc1cc(N2CCC3(Cc4ccccc4N3)C2=O)ccc1-c1cn[nH]c1 (single isomer, unassigned) [Example 34]
4. COc1ccc2c(c1)CC1(CCN(c3ccc(-c4cn[nH]c4)cc3)C1=O)C2 (single isomer, unassigned) [Example 22]
5. COc1ccc2c(c1)CC1(CCN(c3ccc(-c4cn[nH]c4)c(OC)n3)C1=O)C2 (single isomer, unassigned) [Example 19]
6. O=C1N(c2ccc(-c3cn[nH]c3)cc2)CCC12CCc1ccccc1O2 (stereo not shown) [Example 50]
7. COc1cc(F)c2c(c1)NC1(CCN(c3ccc(-c4cn[nH]c4)cc3)C1=O)C2 (single isomer, unassigned) [Example 39]

Reply text:
< 3 nM
< 3 nM
< 3 nM
< 3 nM
300 to 2000 nM
30 to 300 nM
300 to 2000 nM
